Values were extracted from PubChem BioAssay (NCI).

Tested on: UO-31 renal
Assay: NCI tumour cell line growth inhibition, 48 h; in the data active means GI50 below about 0.43 µM; inactive means the rest
Possible outcomes: active, inactive

# compound, cat
rows = [
    ("CCC1CN2C(=N1)c1ccccc1-c1cc(Cl)ccc12 (centres undefined)", "inactive"),
    ("Cc1ccc(C(CC(=O)c2ccccc2)C2C(=O)NC(=O)NC2=O)cc1 (centres undefined)", "inactive"),
    ("Cc1cc(NCCN(C(C)C)C(C)C)nc(/N=C(\\N)Nc2ccc(Cl)c(C(F)(F)F)c2)n1", "active"),
    ("CCCCC[C@H]1C/C=C2/C(=O)C=C[C@@H]2C/C=C\\CCCC(=O)O[C@@H](CCCCC)C/C=C2/C(=O)C=C[C@@H]2C/C=C\\CCCC(=O)O1", "active"),
    ("c1csc(-c2cn3nc(-c4c[nH]c5ccccc45)sc3n2)c1", "inactive"),
    ("CC(=O)OC[C@]12CC[C@@H](C(=O)CBr)[C@@H]1[C@H]1CC[C@@H]3[C@@]4(C)CCCNC(C)(C)[C@@H]4CC[C@@]3(C)[C@]1(C)CC2", "inactive"),
    ("CCn1cnc(C[C@H](NC(=O)[C@@H](NC(=O)Nc2cc(C(F)(F)F)cc(C(F)(F)F)c2)C(C)C)C(=O)OC)c1", "inactive"),
    ("CCCc1cc(=O)[nH]c(-n2nc(C)cc2C)n1", "inactive"),
    ("O=S(=O)(Nc1ccc(Br)c(Cl)c1)c1ccc(-c2cnc(C3CC3)o2)cc1", "inactive"),
]

###

Quick reference: TGI of the listed items.
Tested on: HL-60(TB) leukemia
Assay: NCI tumour cell line growth inhibition, 48 h
measurement_name: TGI

# compound, reported_result
rows = [
    ("C=CCC1(O)c2ccccc2C(=O)c2c(NCCN(CC(=O)OCC)CC(=O)OCC)cccc21 (stereo not given)", "> 100 µM"),
    ("O=C(CCc1ccc(O)c(O)c1)NCCc1cc(O)cc(O)c1", "> 100 µM"),
    ("COc1cc(OC)nc(-n2c(N)c(C#N)c3ccc([N+](=O)[O-])cc3c2=O)n1", "> 100 µM"),
    ("CCC12CCCN(Cc3ccccc3)C1c1c(n(C)c3ccccc13)C(C(=O)OC)C2 (stereo not given)", "> 239 µM"),
    ("O=C1c2cccc(NCCN=Cc3cc([N+](=O)[O-])ccc3O)c2C(=O)c2c(NCCN=Cc3cc([N+](=O)[O-])ccc3O)cccc21", "> 100 µM"),
]

###

Quick reference: TGI of the listed items.
Test system: IGROV1 ovarian
Experiment: NCI tumour cell line growth inhibition, 48 h

# compound, TGI
records = [
    ("COc1ccc2c(c1)[nH]c1c(/C=C/c3ccccc3)nccc12", "> 100 µM"),
    ("CCCCCCCCCCCCCCCCOCC(CC(F)(F)P(=O)(OCC)OCC)OC(C)=O (centres undefined)", "21.8 µM"),
    ("CNc1ccc2c(c1)[C@@]1(C)c3ccccc3[C@@H](C2)N1C", "> 100 µM"),
    ("CC1OC(n2c3ccccc3c3c4c(c5c6ccccc6[nH]c5c32)C(=O)N(CCN[C@@H]2CCC[C@H]2N)C4=O)CC(O)C1O (some centres undefined)", "9.68 µM"),
    ("C=CCNC(=O)N(CCCC(NC(C)=O)C(=O)NCc1ccccc1)Cc1ccccc1 (centres undefined)", "> 100 µM"),
    ("O=c1[nH]nc2ccccc2c1Cc1ccccc1", "> 100 µM"),
    ("O=S(=O)(O)C(=Nc1cccc(Cc2ccccc2)c1)Nc1cccc(Cc2ccccc2)c1", "31.3 µM"),
    ("CCOP(=O)(OCC)C(Nc1ccc(Br)cc1)c1cccc([N+](=O)[O-])c1 (centres undefined)", "76.5 µM"),
    ("N#C/C(c1nc2ccccc2[nH]1)=c1\\s/c(=C/c2ccc(Cl)cc2)c(=O)n1-c1ccccc1", "> 100 µM"),
    ("CC(=O)OC[C@]12CC[C@@H](C(=O)CBr)[C@@H]1[C@H]1CC[C@@H]3[C@@]4(C)CCCNC(C)(C)[C@@H]4CC[C@@]3(C)[C@]1(C)CC2", "3.76 µM"),
    ("COc1ccc2c(c1)[n+]([O-])c(-c1ccc(OC)c(OC)c1)c(N)[n+]2[O-]", "> 100 µM"),
    ("O=c1c2ccccc2c(=O)n2n1CC=CC2", "> 100 µM"),
    ("Cc1cc2c(C)nn(Cc3ccccc3)c2c(C(N)=O)c1C", "> 100 µM"),
    ("CC(C)(C)c1cc(C2=NNC(c3ccccc3)C2)cc(C(C)(C)C)c1O (centres undefined)", "30.2 µM"),
    ("Cc1nn(C(=O)c2ccc(Cl)cc2)c2c1C(c1ccccc1[N+](=O)[O-])SC(N)=N2 (centres undefined)", "> 10 µM"),
    ("Cn1c2ccc3cc2c(=S)c2cc(ccc21)OCCOCCOCCOCCOCCO3", "> 10 µM"),
    ("N#CCCN(CCCN(CCCN(C(=O)Nc1ccccc1)c1ccccc1)C(=O)Nc1ccccc1)C(=O)Nc1ccccc1", "> 100 µM"),
    ("OCC(O)C(Cl)CCl (centres undefined)", "> 100 µM"),
    ("CC(C)CC(NC(=O)OC(C)(C)C)C(=O)Nc1ccc(Nc2nc(F)nc(-c3c4ccccc4c4n3CCS4)n2)cc1 (centres undefined)", "42.3 µM"),
    ("O=C(Cn1c(=O)c(-c2ccccc2)nc2ccccc21)Nc1ccc(F)cc1", "> 100 µM"),
    ("CN1CCN(c2ncc3c(n2)sc2c(=O)n(-c4ccccc4)cnc23)CC1", "> 100 µM"),
    ("COC(=O)[C@@]12OC[C@]34[C@H]([C@@H](O)[C@@H]1O)[C@@]1(C)[C@H](O)C(=O)C=C(C)[C@@H]1C[C@H]3OC(=O)C(OC(C)=O)[C@@H]24 (some centres undefined)", "0.134 µM"),
    ("CC(=O)C1=C(C)N(c2ccc(C)cc2)C2(O)C=CC(=O)C3C(=O)N(c4ccccc4)C(=O)C132 (centres undefined)", "22.3 µM"),
    ("COC(=O)c1sc(=S)sc1SCc1ccc(CSc2sc(=S)sc2C(=O)OC)cc1", "> 100 µM"),
    ("COc1ccc(N=Cc2ccc(N(CCC#N)S(=O)(=O)c3ccccc3)cc2)cc1", "> 100 µM"),
    ("Clc1ccc(N=Nc2nc3ccccc3nc2N=Nc2ccc(Cl)cc2Cl)c(Cl)c1", "> 100 µM"),
    ("Cc1oc2c(C)c3oc(=O)cc(C)c3cc2c1CN1C(=O)C2OCCOCCOCCOCCOCCO[C@H]2C1=O (some centres undefined)", "> 100 µM"),
    ("O=C(Nc1cccc(-n2cc(-c3ccncc3)c(-c3cc(O)cc(Cl)c3)n2)c1)Nc1ccc(Cl)c(C(F)(F)F)c1", "12.6 µM"),
    ("COC(=O)CC1NC(=O)[C@@H]1C(C)O (some centres undefined)", "> 100 µM"),
    ("CN[C@H](C#Cc1c(F)ccc2c1/C(=C/c1[nH]ccc1OC)C(=O)N2)CO", "3.32 µM"),
    ("CN(C)CCNC(=O)c1cc([N+](=O)[O-])cc2c1Oc1ccccc1O2", "> 100 µM"),
    ("CCCCC[C@H]1C/C=C2/C(=O)C=C[C@@H]2C/C=C\\CCCC(=O)O[C@@H](CCCCC)C/C=C2/C(=O)C=C[C@@H]2C/C=C\\CCCC(=O)O1", "0.596 µM"),
    ("CCOC1=C2C(=O)OC(=O)C2C2CCCCC2=C1 (centres undefined)", "> 100 µM"),
    ("Cc1ccc(NC2=CC(=O)C(NO)c3ccccc32)cc1 (centres undefined)", "4.6 µM"),
    ("O=S(Nc1ccccc1)c1cccc(Cl)c1 (centres undefined)", "> 100 µM"),
    ("O=C(O/C(=C(/N=Nc1ccccc1)c1ccccc1)c1ccccc1)c1ccccc1", "> 100 µM"),
    ("CC1CC2OC(=O)C(C)C2CC2(C)C(OC3OC(CO)C(O)C(O)C3O)OCCC12 (centres undefined)", "> 100 µM"),
    ("COc1cc(NC(C)CCCN)c2ncccc2c1 (centres undefined)", "> 100 µM"),
    ("COc1ccc(-c2nc(-c3ccccc3)c(-c3ccccc3)[nH]2)cc1OC1CCCC1", "> 100 µM"),
]
